From: the supplement of paper PMC4022240

// values below are reported peptide microarray binding signal
system: HaloTag-ING2 PHD (mouse Ing2 200-280)
protocol.summary: peptide microarray binding signal (635 nm), min-max normalized on array (fraction of array maximum); higher = stronger binding
condition.description: peptide region: Unmod H3 variant; binder concentration: 10 nM
Give a plain numeric answer without units written out.

Some entries whose results are on file:
- binder: "TGGKAPRKQLATK [Unmod H3 variant T G G K A P R K Q L A T K]"
  peptide microarray binding signal: 0.00788
- binder: "AIHAKRVTIMPKD [Unmod H3 variant A I H A K R V T I M P K D]"
  peptide microarray binding signal: 0.00507
- binder: "RKSAPATGGVKKP [Unmod H3 variant R K S A P A T G G V K K P]"
  peptide microarray binding signal: 0.008

Attention now turns to another entry.
Req: Any idea what peptide microarray binding signal was measured for ATKAARKSAPATG [Unmod H3 variant A T K A A R K S A P A T G] ?
Resp: 0.00776
